assay: yeast display, Sf9 membrane polyspecificity reagent, FACS + sequencing; frameworks hold sequencing errors
quantity-name: polyreactivity (PSR sort gate)

Reference set (10 entries):
sequence-chain	polyreactivity (PSR sort gate)
QVQLVESGGGLVQAGGSLRLSCAASGSTFSPNDMGWYRQAPGKERELVADNSNYADSVKGRFTISRDNAKNTVYLQMNSLKPEDTAVYYCAAEWRGDRYRLYVVSWWYDYWGQGTQVTVSS	low polyreactivity
QVQLVESGGGLVQAGGSLRLSCAASGSTFSVYAMGWYRQAPGKERELVAAITWSGGSTYYADSVKGRFTISRDNAKNTVYLQMNSLKPEDTAVYYCAARYGRIHWKANWPEYGYWGQGTQVTVSS	low polyreactivity
QVQLVESGGGLVQAGGSLRLSCAASGRTFSVNAMGWYRQAPGKERELVAAISWDGGSTYYADSVKGRFTISRDTAKNTVYLQMNSLKPEDTAVYYCNKDLYYAYDYWGQGTQVTVSS	low polyreactivity
QVQLVESGGGLVQAGGSLRLSCAASGSIFGEYTMGWYRQAPGKERELVAAISWNGGITYYADSVKGRFTISRDNAKNTVYLQMNSLKPEDTAVYYCAAETYPWSLFTYYSWGQGSQVTVSS	low polyreactivity
QVQLVESGGGLVQAGGSLRLSCAASGLIFVSNAMGWYRQAPGKERELVAAISWSGSRTYYADSVKGRFTISRENAKNTVYLQMNSLKPEDTAVYYCNAVRRGLPVVGAYDYWGQGTQVTVSS	high polyreactivity
QVQLVESGGGLVQAGGSLRLSGAASGFIFSYYAMGWYRQAPGKERELVAAITSGGSTNYADSVKGRFTISRDNAKNTVYLQMNSLKPEDTAVYYCNALYHWGYPHEYNYWGQGTQVTVSS	low polyreactivity
QVQLQESGGGLVHAGGILRLSCAASGTISFINMKGWYGQAPGRERELVASINFGANTHYADSVKGRFTIRRDNAKNTVYLQMNSLKPEDTAVSYCAARKVRFGVDYWGQGTQVTVSS	high polyreactivity
QVQLVESGGGLVQAGGSLRLSCAASGFIFVYYTMGWYRQAPGNERELVAAISVSGGRTYYADSVKGRFTISRDNAKNTVYLQMNSLKPEDTAVYYCNARNGYGIGYWGQGTQVTVSS	high polyreactivity
QVQLVESGGGLVQAGGSLRLSCAASGITFGDYAMGWDRQAPGKERELVAAISTSGVRTYYADSVKGRFTISRDNAKNTVYLQMNSLKPEDTAVYYCNARDYSGFQTGASAAFDYWGQGTQVTVSS	low polyreactivity
QVQLVESVGGLVQAGGSLRLSCAASGRTFRWNAMGWYRQAPGKERELVAAISYSGGSTYYADSVKGRFTISRDNAKNTVYLQMNSLKPEDTAVYYCAKAYSWYPIFRGLDSWGQGTQVTVSS	high polyreactivity

# input For the sequence `LVQLVESGGALVQAGGSLRLSCAASGLIFYDYAMGWYRQAPGNDRELVAAISKGGGSTYYADSVKGRFTISRDYAKNSVYLQMNSLNTEDTAVYYGAASTSHTTDTRYDYWGQGTQVTVSS` , give its measured polyreactivity (PSR sort gate) value.
# output low polyreactivity

###

assay: yeast display, Sf9 membrane polyspecificity reagent, FACS + sequencing; frameworks hold sequencing errors
quantity-name: polyreactivity (PSR sort gate)

Reference set (5 entries):
sequence-chain	polyreactivity (PSR sort gate)
QVQLVESGGGLVQAGGSLRLSCAASGSTFIRYAMGWYRQAPGKERELVAAITWRGGSTYYADSVKGRFTISRDNAKNTVYLQMNSLKPEDTAVYYCAARDRDTRNYYWGQGTQVTVSS	high polyreactivity
QVQLVESGGGLGQAGGSLRLSCAASGFILRYNAMGWYRQAPGKERELVAAISYTGDRTYYADSVKGRFTISRDNAKNTVYLQMNSLKPEDTAVYYCKAGKGQRALVRIGSKLMYYWGHGTQVTVSS	high polyreactivity
QDQLVESGGGLVQAGGSLRLSCAASGSIFSYYAMGWYRHAPAKDRELVAAITGVGGTNYADSVKGRFTISRDNAKNTVYLQMNSLKPEDTAVYYCAARQYWRRYQYYYWGQGTQVTVSS	high polyreactivity
QVQLVESGGGLVQAGGSLRLSCAASGSIIHSYAMGWYRQAPGKERELVAAISRNGGSTYYADSVKGRFTISRDNAKITVYLQMNSLKPEDTAVYYCAKTYSQTWRYGYWGQGTQVTVSS	high polyreactivity
QVQVVESGGGLVQAGGSLRLSCAASGRTFTRYAMGWYRQAPGKERELVATITRGGSTNYADSVKGRFTISRDNAKNTVYLQMNSLKPEDTAVYYCAAGYFIRTRSRYRYDYWGQGTQVTVSS	high polyreactivity

Value sought for every listed sequence: polyreactivity (PSR sort gate).
1. QVQLVESGGGLVQAGGSLRLSCAASGRTCYINAMGWYRQAPGKERELVAAISSGGSTNYADSVKGRFTISRDNAKNTVYLQMNSLKPEDTAVYYCNAKYYQGTPVELDYWGQATQVTVSS
2. QVQLVESGGGLVQAGGSLRLSCAASGFIFYYNAMGRYRQAPGKERELVATIRGSGGSTYYADSVKGRFTISRDNAKNTVYLQMNSLKPEDTAVYYCATTIYGLTSRLYYWGQGTQVTVSS
3. QVQLVESGGGLVQAGGSLRLICAASGRIFGRYTMGWYRQAPGKETELVAGITYSGGSTYYADSVKGRFTISRDNAKNTVYLQMNSLKPEDTAVYYCAARWRGSGGFDYWGQGTQVTVSS
4. QVQLVESGGGLVQAGGSLRLSCDDSGTFFMGWNIPAPRKERELVAGISISDGSTYYADSVKGRFTISRDNAKNSVYLQMNSLKPEDTAVYYCAADSHYLYDYWGQGTQVTVSS
5. QVQLLESGVGLVQAGGTLRLSCAASGRTFYRNAMGWYRQATGKEREMVAAISQSGGSTYYADSVKGRFTISRDNAKNTVYLQMNSLKPEDTAVYYCAAGNSRRVGMDYWGQGTQVTVSS
6. QVQLVESSGGLVQAGGSLSLICAASGIIFYGYAMGWYRQAPGKERELVASIRSGSNTYYADSVKGRFTISRDNAKNTVYLQMNSLKPEDTAFYSCAARVVPATFRFIRYPHPYYYWGQGTQVTVSS

# output
1. low polyreactivity
2. high polyreactivity
3. high polyreactivity
4. low polyreactivity
5. high polyreactivity
6. low polyreactivity

###

assay: yeast display, Sf9 membrane polyspecificity reagent, FACS + sequencing; frameworks hold sequencing errors
quantity-name: polyreactivity (PSR sort gate)

Reference set (4 entries):
sequence-chain	quantity-name	reading
QVQLVESGGGLVQAGGSLRLSCAASGFIIGDYAMGWYRQAPGTERELVAAIFSVGSTYYADSVKGRFTISRDNAKNTVYLQMNSLKPEDTAVYYCAARFARYDWSMYYWGQGTQVTVSS	polyreactivity (PSR sort gate)	low polyreactivity
QVQLVESGGGLVQAGGSLRLSCAASGITFNRYALGWYRQAPGKERELVASIRWSGGSTNYADSVKGRFTISRDNGKNTVYLQMKSLKPEDTAVYYCNAGRESDDVYEGSQRIGQFDYWGQGTQVTVSS	polyreactivity (PSR sort gate)	low polyreactivity
QVQLVESGGGLVQAGGSLRLSCAASGSIFSRYAMVWYRQAPGKERELVAAISWSGGRTYYADSVKGRFTISRDNAKNTVYLQMNSLKPEDTAVYYCAAPSYTTSWRYDYWGQGTQVTVSS	polyreactivity (PSR sort gate)	high polyreactivity
QVQLEESGGGLVQAGGSLRLSCAASGITFFWNAMGWYRQAPGTERELVAVISSGGSTKYSDSVKGRFTISRDNAKNTVYLQMNSLKPEDTAVYYCAAAVRVGTRQYGYWGQGTQVTVSS	polyreactivity (PSR sort gate)	high polyreactivity

Value sought for every listed sequence: polyreactivity (PSR sort gate).
1. QVQLVESGGGLVQAGGSLRLSCSASGSTFESNAMGWYRQAPGKERELVASISGSGGSTFYADSVKGRFTISRDNAKNTVYLQMISLKPEDTAVYYCAAYKEPYYEEYGYWGQGTQVTVSS
2. QVQLVESVGCLVQAGGSLRLSCAASGRIFTSNAMGWYRQAPGKERELVAAITRRGGTTYYADSVKGRFTISRDNSKNTVYFQMNSLNPEDTAVYYCATIITVASWYDYWGQGTQVTVSS

# output
1: low polyreactivity; 2: low polyreactivity

Value sought for every listed sequence: polyreactivity (PSR sort gate).
1. QVQLVESGGGLVQAGGSLRLSCAASGSTFWYYAMGWYRQAPGKERELVAAITSSGSTYYADSVKGRFTISRDNAKNTVYLQMNSLKPEDTAVYYCAAEQWYGYASYDYWGQVTQVTVSS
2. QVQLVESGGGLVQAGGSLRLSCAASGIFDYYAMGWYRQAPGKERELVAAINSSGGSTYYADSVKGRFTISRDNAKNTVYLQMNSLKPEDTAVYYCAAGRYAYLFNYWGQGTQVTVSS
3. QVQLVESGGGLLQAGGSLRLSCAASVRIFYGYAMGWYRQAPGKERELVAAIDSVGDKYYADSVKGRFTISRDNAKNTVYLQMNSLNPEDTAVYSCAADRTGRIVLSPTDEMDYWGQGTQVSVSS
4. QVQLQESGGGLVQAGGSLRLSCAASGTISPLPAMGWYRQAPGKEREFVAGIDTGAITNYADSVKGRFTISRDNAKNTVYLQMNSLKPVDTAVYYCAVFPAAYDYYERYYTYWGQGTQVTVSS
5. QVQLVESGGGLVQAGGSLRLSCAASGSIFKRNAMGWYRQAPGKERELVAAITGGGRTNYADSVKGRFTISRDNAKNTVYLQMNSLNPEDTAVYYCAADWYGVGLYYTWTRHDYWGQGTQVTVSS

# output
high polyreactivity
high polyreactivity
low polyreactivity
low polyreactivity
low polyreactivity
